test name: Solubility of Form I, Form IV, and Form V in buffers of different pH
Assay type: physicochemical
experimental context: buffer, 37 °C, pH 2.1, aqueous buffer, thermodynamic from solid, buffer pH 2.1, shaken at 37° C. water bath for 2 hours
readout label: solubility at 2 hours (µg/mL)
All answers are understood in µg/mL, so give the number only.

Measured solubility at 2 hours, C[C@H](Nc1ncnc(N)c1C#N)c1cc2ncc(Cl)n2nc1-c1ccccc1 [Form IV] : 500

----------
test name: Solubility of Form I, Form IV, and Form V in buffers of different pH
Assay type: physicochemical
experimental context: buffer, 37 °C, pH 6.8, aqueous buffer, thermodynamic from solid, buffer pH 6.8, shaken at 37° C. water bath for 0.5 hour
readout label: solubility at 0.5 hour (mg/mL)
All answers are understood in mg/mL, so give the number only.

Measured solubility at 0.5 hour, C[C@H](Nc1ncnc(N)c1C#N)c1cc2ncc(Cl)n2nc1-c1ccccc1 [Form I] : 0.03

The measurements presented in this section are drawn from patent US12180214B2.
